# Test system: HS 578T breast
# ASSAY: NCI tumour cell line growth inhibition, 48 h; in the data active means GI50 below about 0.43 µM; inactive means the rest
Possible outcomes: active, inactive

MOLECULE	ASSIGNED_CLASS
COc1cc2c(cc1C)NC(=O)/C2=C\c1c[nH]c2ccccc12	inactive
COc1ccc(N(C)c2nc(Cl)nc3cnn(C)c23)cc1	active
CSc1ccc(C(=O)/C=C/c2ccccc2Cl)cc1	inactive
COc1cnc2c(c1)C(=O)c1c-2n(CCCN2CCNCC2)c(=O)c2cc([N+](=O)[O-])ccc12	inactive
Cc1nccc2c3ccc(OCc4cn(-c5ccc(Cl)cc5)nn4)cc3n(CC(C)C)c12	inactive
COc1ccc2c(c1)C(=O)c1c-2c(Nc2cccc(C(C)=O)c2)nc2ccccc12	inactive
O=[N+]([O-])c1ccc(Sc2ccncn2)c([N+](=O)[O-])c1	inactive
CC1=C([Se]CC(OC(=O)[C@@H](CO)NC(=O)OC(C)(C)C)C(=O)NCCCCCC(=O)OCc2ccccc2)C(=O)c2ccccc2C1=O (some centres undefined)	inactive
C[C@@H](Oc1cc(-n2cnc3ccc(OC[C@@H](O)CO)cc32)sc1C(N)=O)c1ccccc1Cl	active

----------
# Tested on: DLD-1 colon
# ASSAY: NCI tumour cell line growth inhibition, 48 h

MOLECULE	EXPERIMENTAL_TARGET	TGI
CCOP1(=O)C=C(C)C(=C(Cl)Cl)C(C)=C1 (stereo unspecified)	DLD-1 colon	78.5 µM
C=CCCCCCCCCC(=O)O	DLD-1 colon	163 µM
CCN=C(C#N)NCC	DLD-1 colon	> 100 µM
CN(C(=O)c1ccco1)C(=S)N1CCN(c2ccccn2)CC1	DLD-1 colon	> 100 µM
COC(=O)C(/C(=N\NC(N)=S)C(=O)Nc1ccccc1[N+](=O)[O-])c1cnc2ccccc2n1 (stereo unspecified)	DLD-1 colon	> 100 µM
c1ccc2c(NCCCCCCNc3cccc4ccccc34)cccc2c1	DLD-1 colon	> 100 µM
CCOC1CC2OC(=O)C1C=C2C(=O)OC (stereo unspecified)	DLD-1 colon	65.8 µM
CCOC(=O)C(C(O)c1ccc([N+](=O)[O-])cc1)P(=O)(OCC)OCC (stereo unspecified)	DLD-1 colon	> 100 µM
CN(C(=O)c1ccc(OCCCC(=O)O)c(Cl)c1Cl)C1CCCC1	DLD-1 colon	> 100 µM
COC(=O)/C(=N\NC(N)=O)C(C(=O)C=C(C)C)C(=O)C(=O)Nc1ccc(Cl)c(Cl)c1 (stereo unspecified)	DLD-1 colon	> 100 µM
Cc1cc(Cl)ccc1NC(=O)C(=O)C(C(=O)c1ccccc1)C1OC(=O)c2ccccc21 (stereo unspecified)	DLD-1 colon	> 100 µM

----------
# Test system: SR leukemia
# ASSAY: NCI tumour cell line growth inhibition, 48 h

COMPOUND	COMPARISON_SIGN	TGI (µM)
[CH3][Sn]([CH3])([CH3])[O][N+](=O)[O-]	=	3.33
COc1ccc(N(C)c2nc(Cl)nc3cnn(C)c23)cc1	>	100
O=C1c2ccccc2C(=O)N1CC(CN1C(=O)c2ccccc2C1=O)(C(=O)OCc1ccccc1)C(=O)OCc1ccccc1	>	100
COC1C(O)C(C)OC(OC2CCC3(C)C(CCC4C3C(O)CC3(C)C(C5=CC(=O)OC5)CCC43O)C2)C1O (stereo unspecified)	>	100
CCCN1CCC(c2ccc(Nc3nc(Nc4cc(F)ccc4C(N)=O)c4cc[nH]c4n3)c(OC)c2)CC1	=	4.54
COC(=O)C(/C(=N\NC(N)=S)C(=O)Nc1ccccc1[N+](=O)[O-])c1cnc2ccccc2n1 (stereo unspecified)	>	100
CN(C)c1ccc(/C=C/c2cc(-c3ccccc3)[n+](C)n2-c2ccccc2)cc1	>	30
O=c1c(Cl)cc2nc3ccccc3sc-2c1Cl	=	30
N#Cc1ccc(C2NN=CC23C(=O)c2ccccc2OC3c2ccccc2)cc1 (stereo unspecified)	>	100
CCCCN(CCCC)CCCn1cnc2ncccc2c1=O	>	100
COc1cc(/C=N/NC2=NCCCCN2)ccc1O	>	100
O=C1C=CC2(C=C1)C[C@H](NC(=O)OCc1ccccc1)C(=O)O2	=	4.33
C=C(CCCO)[C@@H]1CC[C@@](C)(O)[C@H]1C	>	100
Cc1csc(NNC(=O)Nc2ccccc2)n1	>	100
CC(=O)OCC1OC(n2nc(Cc3ccccc3)c(=S)[nH]c2=S)C(OC(C)=O)C(OC(C)=O)C1OC(C)=O (stereo unspecified)	>	100
CN(CCCn1ccnc1[N+](=O)[O-])CCCn1ccnc1[N+](=O)[O-]	>	100
Cc1c(F)c(NC(=O)CN(C)C)c2c(=O)cc(-c3ccc(NC(=O)CN(C)C)c(F)c3)oc2c1F	=	6.15
CCOC(=O)C(Cc1ccc(N(CCCl)CCCl)cc1)NC(=O)CCCN1C(=O)CN=C(c2ccccc2)c2cc(Cl)ccc21 (stereo unspecified)	>	27.3
Fc1ccc(Nc2nc3ccccc3c3occc23)cc1	=	16.4
Nc1ccc(Sc2c3ccccc3nc3ccccc23)cc1	=	32.4
COC1=CC(=O)c2nc(Cl)ccc2C1=O	>	100
C/C(=N/N=C(N)N)c1ccc(NC(=O)Nc2ccc(/C(C)=N/N=C(N)N)cc2)cc1	=	30.1
O=c1c2ccccc2[nH]c2c(Cl)cc(Cl)c(N3CCCCC3)c12	>	100
COC[C@H](C)N=CN1CCc2ccccc2C1(Cc1ccccc1)Cc1ccccc1	=	42
O=C1C(S(=O)(=O)c2ccccc2)=C(CS(=O)(=O)c2ccccc2)[C@@H](OCc2ccccc2)[C@@H]1OCc1ccccc1	=	33.5
Nc1nc(=S)n(-c2ccc(Cl)cc2)c2nc3ccccc3cc12	>	100
Cc1cc2nc(N3C(=O)/C(=C/c4ccc(N(C)C)cc4)N=C3c3ccccc3)sc2cc1C	=	41.3
O=c1oc2ccc3ccccc3c2cc1-c1nc2ccc([N+](=O)[O-])cc2o1	>	100
CCCCCC[C@H](C)NC(=O)c1ccc(Nc2nc3ccccc3c3occc23)cc1	=	55.5
O=C1CC2SC(COCc3ccccc3)(CCN2Cc2ccccc2)C1 (stereo unspecified)	>	100
COc1cnc2c(c1)C(=O)c1c-2n(CCCN2CCNCC2)c(=O)c2cc([N+](=O)[O-])ccc12	=	1.9
[O-]c1c2c(nn1-c1ccc(Cl)cc1)c1ccccc1c[n+]2Cc1ccccc1	>	100
N/C(=N\S(=O)(=O)c1cc(Cl)c(Oc2ccc([N+](=O)[O-])cc2Cl)c(Cl)c1)Nc1ccc(Cl)cc1	=	43.3
Cc1ccc(-c2cc(-c3ccco3)c(C#N)c(=O)n2C2OC(CO)C(O)C(O)C2O)cc1 (stereo unspecified)	>	100
CC(=O)/C(C=Nc1c(C)n(C)n(C)c1=O)=C(/O)c1ccccc1	>	50
CCOC(=O)C1(Br)S(=O)(=O)OCCOS1(=O)=O	>	100
CCN(CC)CCNc1ccc2nc(C)n3c4ccc(O)cc4c(=O)c1c23	=	1.32
CN(C)CCOC(=O)Nc1nc2ccc(Sc3ccccc3)cc2[nH]1	=	19.4
CSc1ccc(C(=O)/C=C/c2ccccc2Cl)cc1	=	22.4
C=CCc1c(O)c(C(=O)/C=C/c2ccccc2)c(OC)c2ccoc12	=	6.05
C[Si](C)(C)C(Sc1ccccc1)(Sc1ccccc1)Sc1ccccc1	>	100

----------
Overview of reported TGI across a group of compounds:
# Tested on: OVCAR-5 ovarian
# ASSAY: NCI tumour cell line growth inhibition, 48 h

COMPOUND	TGI
COc1cc(/C=N/NC2=NCCCCN2)ccc1O	> 100 µM
CCOC(=O)CNc1nnnn1C1OC(CO)C(O)C1O (stereo not drawn)	> 100 µM
COc1ccc(/C(=N\Nc2ccccn2)c2ccccn2)cc1	98.9 µM
[CH3][Sn]([CH3])([CH3])[O][N+](=O)[O-]	> 10 µM
CCCCCCCCCCCCCB(O)O	> 100 µM
CCOC(=O)C(=O)Nc1ccccc1C(C)C	> 100 µM
COC(=O)C1=NN2c3ccccc3CN([C@@H](C)c3ccccc3)C(=O)[C@@H]2[C@H]1c1ccccc1	> 100 µM
O=C(O)CCC(C(=O)O)N1C(=O)C2C3CCC(C3)C2C1=O (stereo not drawn)	> 100 µM
COc1cc(/C=C/C(=O)c2c(C)nc3ccccc3c2C)ccc1OCCCN1CCN(C(=O)c2ccco2)CC1	32 µM
CC1C(c2ccccc2O)c2cc3c(cc2OC1N1CCOCC1)OCO3 (stereo not drawn)	> 100 µM
Nc1c(F)cc(-c2nc3cc(F)ccc3[se]2)cc1Br	> 33.5 µM
COc1cc2c[n+](C)c3c(c2cc1OC)Cc1cc2c(cc1-3)OCO2	> 100 µM
FC(F)(F)c1cc(Nc2ccc3cc(OCCCN4CCOCC4)ccc3n2)ccc1Cl	5.84 µM
CC(=O)OCC1OC(n2nc(Cc3ccccc3)c(=S)[nH]c2=S)C(OC(C)=O)C(OC(C)=O)C1OC(C)=O (stereo not drawn)	> 100 µM
N#Cc1ccc(C2NN=CC23C(=O)c2ccccc2OC3c2ccccc2)cc1 (stereo not drawn)	> 100 µM
O=Nc1c(O)cc(Nc2cccnc2)c2ccccc12	> 100 µM
CCOCc1cc(=O)c2c(OC)cc3c(c2o1)CCC(C)(C)O3	> 100 µM
O=[N+]([O-])C(=C/c1cccs1)/C(=C\c1cccs1)[N+](=O)[O-]	7.21 µM
[O-]c1c2c(nn1-c1ccc(Cl)cc1)c1ccccc1c[n+]2Cc1ccccc1	> 100 µM
C#CC1NC(=O)C1N(CC)CC (stereo not drawn)	> 100 µM
Cc1ccccc1C1CC(c2ccccc2)=NO1 (stereo not drawn)	> 100 µM
COc1cnc2c(c1)C(=O)c1c-2n(CCCN2CCNCC2)c(=O)c2cc([N+](=O)[O-])ccc12	2.58 µM
O=C1CC2SC(COCc3ccccc3)(CCN2Cc2ccccc2)C1 (stereo not drawn)	> 100 µM
